test: Biodistribution study (SPECT/CT) in SK-RC-52 tumor-bearing mice with or without gelofusine; type: in vivo, NMRI nude mice; conditions: female, NMRI nude, mouse, in vivo, iv, total radioactivity, SK-RC-52, In-111-labeled, no gelofusine; Mean ± SEM; read-out: Liver uptake at 4 h p.i.
observedProperty: tissue uptake at 4 h
Kindly write the number and append the unit.

CC(C)C[C@@H]1NC(=O)[C@H](Cc2cccc(NC(=O)CCCS(N)(=O)=O)c2)NC(=O)[C@H](CC(=O)O)NC(=O)[C@H]2CCCN2C(=O)[C@H](CCC(=O)O)NC(=O)[C@@H](NC(=O)[C@H](CCC(N)=O)NC(=O)CN2CCN(C(=O)CN3CCN(CC(=O)O)CCN(CC(=O)O)CCN(CC(=O)O)CC3)CC2)CSCc2cccc(c2)CSC[C@@H](C(N)=O)NC(=O)[C@H](CO)NC(=O)[C@H](Cc2c[nH]c3ccccc23)NC(=O)[C@H]([C@@H](C)O)NC1=O yielded tissue uptake at 4 h of 0.18 %ID/g
